Below, each entry is listed with its recorded Kd.
MEASURED TARGET: T1, human 2Ig-B7H3 (B7H3-2Ig-His) (human, UniProt Q5ZPR3 29-466)
T1 construct: Recombinant His-tagged protein immobilised on a CM5 chip; also called 21g-B7H3; B7H3-21g-His; not shown: His tag
T1 sequence: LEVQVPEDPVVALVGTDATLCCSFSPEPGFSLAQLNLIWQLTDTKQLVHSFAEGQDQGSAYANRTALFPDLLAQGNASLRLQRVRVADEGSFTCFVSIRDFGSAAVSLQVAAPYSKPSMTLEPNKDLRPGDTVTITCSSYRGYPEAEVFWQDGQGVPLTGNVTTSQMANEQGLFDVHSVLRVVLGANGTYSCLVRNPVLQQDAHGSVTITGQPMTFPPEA
MEASUREMENT DESCRIPTION: SPR, Biacore T200, 2Ig-B7H3-His on CM5 chip, 1:1 fit
QUANTITY: Kd (nM)

{"columns": ["BINDER", "QUANTITY", "RESULT VALUE"],
 "data": [
  ["175Lu-DTPA-8H9-antibody (CAR3.6) (antibody, mouse IgG1, kappa, V domains shown, p-SCN-Bn-CHX-A″-DTPA conjugated (CAR 3.6 per antibody), labelled with cold lutetium-175; sites not stated) VH: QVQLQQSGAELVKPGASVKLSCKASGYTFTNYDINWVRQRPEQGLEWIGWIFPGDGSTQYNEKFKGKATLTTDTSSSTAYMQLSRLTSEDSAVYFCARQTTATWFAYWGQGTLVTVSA VL: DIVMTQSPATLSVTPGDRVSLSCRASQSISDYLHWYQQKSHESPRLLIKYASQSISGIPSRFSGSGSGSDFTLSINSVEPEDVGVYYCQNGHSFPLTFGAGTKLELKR", "Kd", 2.34],
  ["175Lu-DTPA-8H9-antibody (CAR3) (antibody, mouse IgG1, kappa, V domains shown, p-SCN-Bn-CHX-A″-DTPA conjugated (CAR 3 per antibody), labelled with cold lutetium-175; sites not stated) VH: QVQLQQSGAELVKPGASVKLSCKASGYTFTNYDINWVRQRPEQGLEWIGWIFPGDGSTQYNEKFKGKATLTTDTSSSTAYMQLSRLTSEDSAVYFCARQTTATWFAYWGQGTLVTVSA VL: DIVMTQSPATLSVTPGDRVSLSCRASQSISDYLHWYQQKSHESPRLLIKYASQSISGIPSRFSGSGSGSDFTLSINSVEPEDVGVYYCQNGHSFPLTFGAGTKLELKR", "Kd", 1.8]
]}
